Assay: Food and acidic beverage effect on bioavailability of ATR-101 tablets, 3-way crossover plasma PK study
Type: in vivo, human
Conditions: both sexes, human, plasma, po, 500 mg, Treatment C (fasting with acidic beverage), single oral 500 mg; Geometric Mean; read-out: Cmax
Structures can show the parent of a compound that is named as a salt.
readout.name: Cmax (ng/mL)
A number alone suffices; assume ng/mL.

**Q:** Give its Cmax value. Item: CC(C)c1cccc(C(C)C)c1NC(=O)NCC1(c2ccc(N(C)C)cc2)CCCC1 [ATR-101, hydrochloride]
**A:** 558

----------
Assay: Food and acidic beverage effect on bioavailability of ATR-101 tablets, 3-way crossover plasma PK study
Assay type: in vivo, human
Settings: both sexes, human, plasma, po, 500 mg, Treatment B (fed with water), single oral 500 mg; Median; read-out: AUC0-t
Structures can show the parent of a compound that is named as a salt.
readout.name: AUC0-t (ng·h/mL)
Numeric answer only, unit ng·h/mL assumed.

**Q:** What does the data say about its AUC0-t? Entry: CC(C)c1cccc(C(C)C)c1NC(=O)NCC1(c2ccc(N(C)C)cc2)CCCC1 [ATR-101, hydrochloride]
**A:** 6110

----------
Experiment: Food and acidic beverage effect on bioavailability of ATR-101 tablets, 3-way crossover plasma PK study
Type: in vivo, human
Conditions: both sexes, human, plasma, po, 500 mg, Treatment B (fed with water), single oral 500 mg; Mean
Where a name gives a salt, the structure may show the parent alone.
readout.name: half-life (h)
Field format: number, assumed h, no unit text.

**Q:** Looking for the measured half-life of CC(C)c1cccc(C(C)C)c1NC(=O)NCC1(c2ccc(N(C)C)cc2)CCCC1 [ATR-101, hydrochloride] , can you help?
**A:** 20.4

----------
Test: Food and acidic beverage effect on bioavailability of ATR-101 tablets, 3-way crossover plasma PK study
Format: in vivo, human
Conditions: both sexes, human, plasma, po, 500 mg, Treatment B (fed with water), single oral 500 mg; Geometric Mean; read-out: AUC0-t
Where a name gives a salt, the structure may show the parent alone.
readout.name: AUC0-t (ng·h/mL)
Just the number in ng·h/mL, nothing appended.

**Q:** Endpoint output: AUC0-t of CC(C)c1cccc(C(C)C)c1NC(=O)NCC1(c2ccc(N(C)C)cc2)CCCC1 [ATR-101, hydrochloride] . Value?
**A:** 6200

----------
Assay: Food and acidic beverage effect on bioavailability of ATR-101 tablets, 3-way crossover plasma PK study
Format: in vivo, human
Conditions: both sexes, human, plasma, po, 500 mg, Treatment C (fasting with acidic beverage), single oral 500 mg; Mean; read-out: AUC0-t
Counter-ions that a name gives are not always drawn.
readout.name: AUC0-t (ng·h/mL)
API: value field is a number in ng·h/mL; no unit string.

**Q:** Param item = CC(C)c1cccc(C(C)C)c1NC(=O)NCC1(c2ccc(N(C)C)cc2)CCCC1 [ATR-101, hydrochloride] ; retrieve measured AUC0-t.
**A:** 3830

----------
Assay: Food and acidic beverage effect on bioavailability of ATR-101 tablets, 3-way crossover plasma PK study
Assay type: in vivo, human
Conditions: Treatment C (fasting with acidic beverage), single oral 500 mg; Minimum
Counter-ions that a name gives are not always drawn.
readout.name: AUC0-inf (ng·h/mL)
Just the number in ng·h/mL, nothing appended.

**Q:** Recorded AUC0-inf of CC(C)c1cccc(C(C)C)c1NC(=O)NCC1(c2ccc(N(C)C)cc2)CCCC1 [ATR-101, hydrochloride] , please.
**A:** 728

----------
Assay: Food and acidic beverage effect on bioavailability of ATR-101 tablets, 3-way crossover plasma PK study
Assay type: in vivo, human
Settings: Treatment A (fasting with water), single oral 500 mg; Minimum
Counter-ions that a name gives are not always drawn.
readout.name: AUC0-t (ng·h/mL)
All answers are understood in ng·h/mL, so give the number only.

**Q:** Look at this compound and give its reported AUC0-t. CC(C)c1cccc(C(C)C)c1NC(=O)NCC1(c2ccc(N(C)C)cc2)CCCC1 [ATR-101, hydrochloride]
**A:** 840

----------
Test: Food and acidic beverage effect on bioavailability of ATR-101 tablets, 3-way crossover plasma PK study
Type: in vivo, human
Conditions: both sexes, human, plasma, po, 500 mg, Treatment A (fasting with water), single oral 500 mg; Geometric Mean; read-out: AUC0-inf
Structures can show the parent of a compound that is named as a salt.
readout.name: AUC0-inf (ng·h/mL)
# value in ng·h/mL; strip the unit string

**Q:** Fill in: AUC0-inf of CC(C)c1cccc(C(C)C)c1NC(=O)NCC1(c2ccc(N(C)C)cc2)CCCC1 [ATR-101, hydrochloride] is ___
**A:** 3480
